# Method Description: qHTS assay to identify aromatase inhibitors - cell viability counter screen (AID 743084);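 further: cells stimulated with testosterone during compound exposure; nearly all actives have a fitted effect of over 55% in size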
# Details: MCF-7 aro ERE viability, CellTiter-Fluor, 24 h; series mostly up to 70.3 µM
Records with an inconclusive call do not appear. Activity calls are given as the source filed them. The call rests on the fitted dose curve; in most records, active means well fitted cell-killing curve with a large enough effect in the repeat runs; inconclusive means weak or mixed curves, or effect the other way; inactive means no such curve, though single readings can be large or run the other way.
Outcome codes: 1 (yes) for active, 0 (no) for inactive

* Cc1ccc2c(c1)CCCN2 | 0 (no)
* COc1cc(OC)c2ccc(=O)oc2c1 | 0 (no)
* C=C(C)C(=O)OCCC(F)(F)C(F)(F)C(F)(F)C(F)(F)C(F)(F)C(F)(F)F | 0 (no)
* Nc1nc(-c2ccc([N+](=O)[O-])cc2)cs1 | 0 (no)
* CC(C)COC(=O)c1ccc(O)cc1 | 0 (no)
* OCC(CO)n1cnc(-c2ccc(F)cc2)c1-c1ccnc(Oc2ccccc2)n1 | 0 (no)
* CC(C)(O)c1coc(S(=O)(=O)NC(=O)Nc2c3c(cc4c2CCC4)CCC3)c1 | 0 (no)
* COC(=O)CC(C(C)=O)C(=O)OC (stereo not given) | 0 (no)
* O=C(c1ccccc1)C1CCC1 | 0 (no)
* CCN(CC)CCOC(=O)C(c1ccccc1)c1ccccc1 | 0 (no)
* Cc1ccc(N(CC2=NCCN2)c2cccc(O)c2)cc1 | 0 (no)
* BrC(Br)C(Br)Br | 0 (no)
* CCC(C)(C)C(=O)O | 0 (no)
* NC(=O)CCCCC(N)=O | 0 (no)
* O=C(c1ccccc1)c1ccc(O)cc1 | 0 (no)
* CNC1CCCN(c2c(F)cc3c(=O)c(C(=O)O)cn(C4CC4)c3c2OC)C1 (stereo not given) | 0 (no)
* C[C@@H]1C[C@H]2[C@@H]3CCC4=CC(=O)C=C[C@]4(C)[C@@]3(F)[C@@H](O)C[C@]2(C)[C@@]1(O)C(=O)COP(=O)(O)O | 0 (no)
* CCCCCCCCCCCCCOS(=O)(=O)O | 0 (no)
* O=[N+]([O-])c1ccc2ncccc2c1 | 0 (no)
* COc1ccc(C)cc1 | 0 (no)
* O=c1[nH]c2cc(C(F)(F)F)c(N3CCOCC3)cc2n(CP(=O)(O)O)c1=O | 0 (no)
* Nc1cccc2c(N)cccc12 | 0 (no)
* O=C(O)CCC(=O)c1ccc(-c2ccccc2)cc1 | 0 (no)
* CSSc1ccoc1C | 0 (no)
* CCN(CC)c1ccc(C(=C2C=CC(=[N+](CC)CC)C=C2)c2ccc(S(=O)(=O)O)cc2S(=O)(=O)[O-])cc1 | 1 (yes)
* O=C(NS(=O)(=O)/C=C/c1ccccc1)c1ccc(F)cc1Cl | 0 (no)
* CCN(CC)CCOc1ccccc1C(=O)CCc1ccccc1 | 0 (no)
* COc1ccc(/C=C/C(=O)c2ccc(OC)cc2OC)cc1 | 0 (no)
* Cc1ccc(N(CCO)CCO)cc1 | 0 (no)
* COC(CC(C)CCCC(C)(C)O)OC (stereo not given) | 0 (no)
* O=C(O)CCCc1c[nH]c2ccccc12 | 0 (no)
* O=C(O)CNC(=O)c1ccccc1I | 0 (no)
* CC(C)c1ccc(C#N)cc1 | 0 (no)
* COC(OC)OC | 0 (no)
* Cc1ccc(S(=O)(=O)NC(=O)NC2CCCCC2)cc1 | 0 (no)
* Nc1nc2ccc(OC(F)(F)F)cc2s1 | 0 (no)
* CSCC[C@H](NC(=O)[C@H](Cc1c[nH]c2ccccc12)NC(=O)CCNC(=O)OC(C)(C)C)C(=O)N[C@@H](CC(=O)O)C(=O)N[C@@H](Cc1ccccc1)C(N)=O | 0 (no)
* CCCCCCCC/C=C\CCCCCCCC(=O)OCCO | 0 (no)
* COc1cc(S(=O)(=O)Nc2ccccc2)c(OC)cc1N | 0 (no)
* CC(C)(C)CCCCCCOC(=O)c1ccccc1C(=O)OCCCCCCC(C)(C)C | 0 (no)
* c1ccc(CNc2ncnc3c2ncn3C2CCCCO2)cc1 (stereo not given) | 0 (no)
* [Cl][Nd]([Cl])[Cl] | 0 (no)
* O=C(/C=C/c1ccc([N+](=O)[O-])cc1)c1ccccc1 | 0 (no)
* CCCCCCC(O)CCOC(C)=O (stereo not given) | 0 (no)
* CCC(Cl)CC(Cl)C(Cl)C(Cl)C(Cl)C(C)Cl (stereo not given) | 0 (no)
